- assay.remarks: chemical genetic growth profiling, strain panel (AID 1159580);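 note: tested at 20 µM; growth read once vehicle control cultures reached saturation at 30 °C; 1 = growth at the plate median or of vehicle wells; lower values mean less growth of the strain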
- test.conditions: S. cerevisiae deletion strains, growth OD, locus YNL006W, strain LST8, stronger effect = lower value
Among all 5,500 compounds or so, about 2,000 (36%) were called active. Roughly 18% stayed inconclusive and do not appear here. Some of the results follow.
readout.name: normalized growth
Please state the value as a number alone, without comment.

{"compound": "COc1ccccc1NC(=S)N/N=C\\c1ccccc1O", "readout.name": "normalized growth", "value.reported": 0.97}

Q. Which value of normalized growth has been reported for `Oc1c(Br)cc(Br)cc1C=Nc1ccc(Sc2ccccc2)nc1Sc1ccccc1` in the records?
A. 0.941

Q. Item Cc1nnc2n1N=C(c1ccc(CC(C)C)cc1)C(C)S2 (stereo unspecified) has what recorded normalized growth?
A. 0.986

Q. normalized growth lookup needed for `O/N=C(/c1ccc(Cl)cc1)c1cc2ccccc2o1` , thanks.
A. 0.945

Q. What value of normalized growth has been recorded for this entry: `O=C1/C(=C/c2ccccn2)CCc2ccccc21`
A. 0.967

Q. What value of normalized growth has been reported for the following compound? `Oc1c(Br)cc(Br)cc1C=Nc1ccccn1`
A. 0.895
